Catalogue of -log(Kd) values
system.name: T1, Recombinant human Fc-tagged extracellular domain of LILRB1 (human, UniProt Q8NHL6 24-461)
T1 construct: extracellular domain; Bought from R&D Systems; also called LILRB1-Fc; not shown: Fc tag
protocol: SPR, Biacore X100; LILRB1-Fc amine-coupled to CM5 chip, antibody injected at 3.7-300 nM

binder	metric	observed
4D5 (antibody, V domains shown, Entries are printed with leader peptide and part of the mouse constant region; also called LILRB1 antibody 4D5) VH: QVQLQQPGAELVRPGSSVKLSCKASGYTFTSYWMDWVKQRPGQGLEWIGNIYPSDSATHYNQKFKDKATLTVDKSSSTAYMHLSSLTSEDSAVYYCARGLLQYFDVWGTGTSVTVSS VL: DIQMTQSPASLSVSVGETVTITCRASENIYSNLAWYQQKQGKSPQLLVYGATNLADGVPSRFSGSGSGTQYSLKINSLQSEDFGSYYCQHFWGIPWTFGGGTKLEIKR	-log(Kd)	7.89

// next entry
Give the measured -log(Kd) for 5E11 (antibody, V domains shown, Entries are printed with leader peptide and part of the mouse constant region; also called LILRB1 antibody 5E11) VH: QVQLKESGPGLVAPSQSLSITCTVSGFSLSSYGVNWVRQPPGKGLEWLGVIWGDGSTNYHSALISRLSISKDNSKSQVFLKLNSLQTDDTATYYCAKPNWDYYAMEYWGQGTSVTVSS VL: DIQMTQTTSSLSASLGDRVTITCRASQDISNFLNWYQQKPDGPVKLLIYYTSRLHSGVPSRFSGSGSGTDYSLTISNLEQEDIATYFCQQGNTLPWTFGGGTKLEIKR
< 3

meta.source: patent US20240150462A1
